Assay Protocol: Study-2 multiple-dose day 14 pharmacokinetics (plasma)
Format: in vivo, human
Test Parameters: human, plasma, oral, 45 mg, Study-2, 45 mg QD, Day 14; geo mean (GeoCV%); read-out: AUC(0–24)
Reported Metric: AUC(0-t) (ng·h/mL)

INSERT INTO results (test_smiles, result) VALUES
  ('[O-][n+]1cccc(-c2nc3c(Cl)cccc3cc2[C@@H](Nc2ncnc3cccnc23)C(F)(F)F)c1', 17000);

###

Assay Protocol: Study-2 single-dose pharmacokinetics (plasma)
Assay type: in vivo, human
Test Parameters: human, plasma, oral; Study-2 single dose, 60 mg QD cohort; geo mean (GeoCV%)
Reported Metric: MRT

INSERT INTO assay_data (compound, result) VALUES
  ('[O-][n+]1cccc(-c2nc3c(Cl)cccc3cc2[C@@H](Nc2ncnc3cccnc23)C(F)(F)F)c1 [Seletalisib, seletalisib]', '21.5 h');

###

Assay Protocol: Study-1 Part-A single ascending dose pharmacokinetics (plasma and urine)
Format: in vivo, human
Test Parameters: human, plasma, oral, 1 mg, Study-1 Part-A, single dose 1 mg fasted; median (range); read-out: tmax
Reported Metric: Tmax (h)

INSERT INTO results (test_smiles, result) VALUES
  ('[O-][n+]1cccc(-c2nc3c(Cl)cccc3cc2[C@@H](Nc2ncnc3cccnc23)C(F)(F)F)c1', 1.77);

###

Assay Protocol: Study-2 multiple-dose day 14 pharmacokinetics (plasma)
Assay type: in vivo, human
Test Parameters: human, plasma, oral, 60 mg, Study-2, 60 mg QD, Day 14; geo mean (GeoCV%); read-out: AUC(0–t)
Reported Metric: AUC(0-t) (ng·h/mL)

INSERT INTO measurements (test_smiles, result) VALUES
  ('[O-][n+]1cccc(-c2nc3c(Cl)cccc3cc2[C@@H](Nc2ncnc3cccnc23)C(F)(F)F)c1', 51600);

###

Assay Protocol: Study-2 multiple-dose day 14 pharmacokinetics (plasma)
Assay type: in vivo, human
Test Parameters: human, plasma, oral, 90 mg, Study-2, 90 mg QD, Day 14; geo mean (GeoCV%); read-out: AUC(0–t)
Reported Metric: AUC(0-t) (ng·h/mL)

INSERT INTO assay_data (test_smiles, reported_metric, result) VALUES
  ('[O-][n+]1cccc(-c2nc3c(Cl)cccc3cc2[C@@H](Nc2ncnc3cccnc23)C(F)(F)F)c1', 'AUC(0-t)', 67600);

###

Assay Protocol: Study-1 Part-A single ascending dose pharmacokinetics (plasma and urine)
Format: in vivo, human
Test Parameters: human, plasma, oral, 5 mg, Study-1 Part-A, single dose 5 mg fasted; geo mean (GeoCV%); read-out: t1/2 (converted)
Reported Metric: half-life

INSERT INTO assay_data (compound, reported_metric, result) VALUES
  ('[O-][n+]1cccc(-c2nc3c(Cl)cccc3cc2[C@@H](Nc2ncnc3cccnc23)C(F)(F)F)c1 [Seletalisib, seletalisib]', 'half-life', '1130 min');

###

Assay Protocol: Study-1 Part-A single ascending dose pharmacokinetics (plasma and urine)
Assay type: in vivo, human
Test Parameters: human, plasma, oral, 5 mg, Study-1 Part-A, single dose 5 mg fasted; geo mean (GeoCV%)
Reported Metric: AUC(0-t) (ng·h/mL)

INSERT INTO assay_data (test_smiles, result) VALUES
  ('[O-][n+]1cccc(-c2nc3c(Cl)cccc3cc2[C@@H](Nc2ncnc3cccnc23)C(F)(F)F)c1', 2100);

###

Assay Protocol: Study-2 single-dose pharmacokinetics (plasma)
Format: in vivo, human
Test Parameters: human, plasma, oral, 90 mg, Study-2 single dose, 90 mg QD cohort; geo mean (GeoCV%); read-out: AUC(0–t)
Reported Metric: AUC(0-t) (ng·h/mL)

INSERT INTO results (test_smiles, result) VALUES
  ('[O-][n+]1cccc(-c2nc3c(Cl)cccc3cc2[C@@H](Nc2ncnc3cccnc23)C(F)(F)F)c1', 31200);

###

Assay Protocol: Study-2 multiple-dose day 14 pharmacokinetics (plasma)
Format: in vivo, human
Test Parameters: human, plasma, oral; Study-2, 60 mg QD, Day 14; geo mean (GeoCV%)
Reported Metric: MRT

INSERT INTO measurements (test_smiles, result) VALUES
  ('[O-][n+]1cccc(-c2nc3c(Cl)cccc3cc2[C@@H](Nc2ncnc3cccnc23)C(F)(F)F)c1', '24.2 h');

###

Assay Protocol: Study-2 multiple-dose day 14 pharmacokinetics (plasma)
Assay type: in vivo, human
Test Parameters: human, plasma, oral; Study-2, 60 mg QD, Day 14; median (range); read-out: tmax
Reported Metric: Tmax (h)

INSERT INTO measurements (test_smiles, value_unit, result) VALUES
  ('[O-][n+]1cccc(-c2nc3c(Cl)cccc3cc2[C@@H](Nc2ncnc3cccnc23)C(F)(F)F)c1', 'h', 3.5);

###

Assay Protocol: Study-1 Part-B multiple ascending dose pharmacokinetics (plasma and urine)
Format: in vivo, human
Test Parameters: human, plasma, oral, 8 mg, Study-1 Part-B, 8 mg, Day 1; geo mean (GeoCV%); read-out: AUC(0–24)
Reported Metric: AUC(0-t) (ng·h/mL)

INSERT INTO results (test_smiles, reported_metric, value_unit, result) VALUES
  ('[O-][n+]1cccc(-c2nc3c(Cl)cccc3cc2[C@@H](Nc2ncnc3cccnc23)C(F)(F)F)c1', 'AUC(0-t)', 'ng·h/mL', 2610);

###

Assay Protocol: Study-1 Part-B multiple ascending dose pharmacokinetics (plasma and urine)
Type: in vivo, human
Test Parameters: human, urine and plasma, oral, 8 mg, Study-1 Part-B, 8 mg, Day 14; geo mean (GeoCV%)
Reported Metric: CL renal (mL/min)

INSERT INTO measurements (test_smiles, reported_metric, value_unit, result) VALUES
  ('[O-][n+]1cccc(-c2nc3c(Cl)cccc3cc2[C@@H](Nc2ncnc3cccnc23)C(F)(F)F)c1', 'CL renal', 'mL/min', 2.32);

###

Assay Protocol: Study-1 Part-A single ascending dose pharmacokinetics (plasma and urine)
Type: in vivo, human
Test Parameters: human, plasma, oral, 5 mg, Study-1 Part-A, single dose 5 mg fed; geo mean (GeoCV%)
Reported Metric: Cmax (ng/mL)

INSERT INTO assay_data (test_smiles, value_unit, result) VALUES
  ('[O-][n+]1cccc(-c2nc3c(Cl)cccc3cc2[C@@H](Nc2ncnc3cccnc23)C(F)(F)F)c1', 'ng/mL', 105);

Values compiled from paper PMC5384962.
